tgt: CDK2/CyclinE1 (Homo sapiens (Human), UniProt P24941)
protocol: CDK2 kinase assay (TR-FRET)
condition.summary: CDK2/CyclinE1 0.5 nM, ATP 50 μM
Kindly apply the following: condition met if IC50 is less than 50 nM, condition not met in every other case.

compound: COCc1cc(C(=O)NC2=NCC([C@H]3CC[C@H](N4CCN(C(C)C)C4=O)C3)=C2)n(C)n1
qualitative.label: condition not met
--
compound: CC1(NC(=O)O[C@@H]2CC[C@H](c3cc(NC(=O)[C@@H]4CCN(S(=O)(=O)C5CC5)C4)n[nH]3)C2)CC1
qualitative.label: condition met
--
compound: COCc1cc(F)cc(CC(=O)Nc2cc([C@@H]3C[C@H](OC(=O)NC(C)C)CO3)[nH]n2)c1
qualitative.label: condition met
--
compound: CC(C)NC(=O)O[C@@H]1CC[C@H](c2cc(NC(=O)C3CC34CCOC4)n[nH]2)C1 (stereo partly drawn) [Compound 175]
qualitative.label: condition not met

[ask] Given the entry CC(C)NC(=O)O[C@@H]1CC[C@H](c2cc(NC(=O)[C@H]3C[C@@H]3C#CC(F)F)n[nH]2)C1 , would its reported IC50 be below 50 nM?
[reply] condition met

[ask] Can you check COC(C)[C@H]1C[C@@H]1C(=O)Nc1cc([C@H]2CC[C@@H](OC(=O)NC3(C)CC3)C2)[nH]n1 (single isomer, unassigned) [Compound 220] next?
[reply] condition met

----------
tgt: CDK2/CyclinE1 (Homo sapiens (Human), UniProt P24941)
protocol: CDK2 kinase assay (TR-FRET)
Type: biochemical
condition.summary: CDK2/CyclinE1 0.5 nM, ATP 50 μM
readout.kind: pIC50
# pIC50 is unitless: minus log10 of the molar concentration; print number only

molecule: CC(C)NC(=O)O[C@@H]1CC[C@H](c2cc(NC(=O)[C@H]3C[C@@H]3CC#N)n[nH]2)C1
tgt: CDK2/CyclinE1 (Homo sapiens (Human), UniProt P24941)
numeric.value: 8.40
--
molecule: CC(C)NC(=O)O[C@@H]1CC[C@H](c2cc(NC(=O)C3CC4CCC3O4)n[nH]2)C1 (single isomer, unassigned) [Compound 146]
tgt: CDK2/CyclinE1 (Homo sapiens (Human), UniProt P24941)
numeric.value: 7.35
--
molecule: CC(C)NC(=O)O[C@@H]1CC[C@H](c2cc(NC(=O)[C@@H]3CCN(S(C)(=O)=O)C3)n[nH]2)C1
tgt: CDK2/CyclinE1 (Homo sapiens (Human), UniProt P24941)
numeric.value: 8.92
--
molecule: C#C[C@H]1C[C@@H]1C(=O)Nc1cc([C@@H]2C[C@H](OC(=O)NC(C)(C)C)CO2)[nH]n1
tgt: CDK2/CyclinE1 (Homo sapiens (Human), UniProt P24941)
numeric.value: 8.85
--
molecule: CCC1(NC(=O)O[C@@H]2CO[C@H](c3cc(NC(=O)c4ccnn4C)n[nH]3)C2)CCC1
tgt: CDK2/CyclinE1 (Homo sapiens (Human), UniProt P24941)
numeric.value: 8.85

[ask] Reported pIC50 for Cc1c([C@@H]2C[C@H]2C(=O)Nc2cc([C@H]3CC[C@@H](OC(=O)NC4(C)CCC4)C3)[nH]n2)cnn1C : what is it?
[reply] 9.22

[ask] For Cn1nccc1C(=O)Nc1cc([C@@H]2C[C@H](OC(=O)NC3(CF)CCC3)CO2)[nH]n1 then?
[reply] 8.74

[ask] Try Cn1nccc1C(=O)Nc1cc([C@H]2C[C@@H](OC(=O)NC3CCC3)CO2)[nH]n1 next.
[reply] 8.72

[ask] // query: CC(C)NC(=O)O[C@@H]1CC[C@H](c2cc(NC(=O)C3CC3C#N)n[nH]2)C1 (single isomer, unassigned) [Compound 118]
[reply] 8.74
